Tested on: OVCAR-8
Test: NCI tumour cell line growth inhibition, 48 h
The source made the active and inactive calls. Rule as the data show it: active = GI50 up to about 1.1 µM and inactive = higher.
Labels: active, inactive

{"Compound": "COc1cc(/C=C/C(=N\\NC(=S)NN)c2sc(NNC(C)=O)nc2C)ccc1O", "System Name": "OVCAR-8", "Assigned Category": "inactive"}
{"Compound": "OC(c1cccs1)c1cc2ccccc2s1 (centres undefined)", "System Name": "OVCAR-8", "Assigned Category": "inactive"}
{"Compound": "CN(C(=O)C12C3(C(=O)C(C)(C)C)C4C5(C#N)C3C1(C(=O)C(C)(C)C)C5C42C(=O)C(C)(C)C)C(C)(C)C (centres undefined)", "System Name": "OVCAR-8", "Assigned Category": "inactive"}
{"Compound": "COc1cc2c(cc1OC)C13CCN4CC5=CCOC6CC(=O)N2C1C6C5CC43O (centres undefined)", "System Name": "OVCAR-8", "Assigned Category": "inactive"}
{"Compound": "CC(=O)O[C@H]1CC[C@@]2(C)C(=CC[C@@H]3[C@@H]2CC[C@]2(C)c4c(C)nn(-c5ccccc5)c4C[C@@H]32)C1", "System Name": "OVCAR-8", "Assigned Category": "inactive"}
{"Compound": "O=C(N/N=C\\c1cccs1)c1ccncc1", "System Name": "OVCAR-8", "Assigned Category": "inactive"}
{"Compound": "S=C1CSc2c(ccc3ccccc23)N1", "System Name": "OVCAR-8", "Assigned Category": "inactive"}
{"Compound": "Cc1c2c(C(N)=O)nccc2c(C)c2c1c1ccccc1n2Cc1ccccc1", "System Name": "OVCAR-8", "Assigned Category": "inactive"}
{"Compound": "Cc1ccc2nc(Cl)c(/C=N/N3C(=O)/C(=C/c4ccccc4S)N=C3c3ccccc3)cc2c1", "System Name": "OVCAR-8", "Assigned Category": "inactive"}
{"Compound": "COc1ccccc1C[C@@H]1OC2(C=CC(=O)CC2SC(=O)c2ccccc2)O[C@H]1Cc1ccccc1OC (some centres undefined)", "System Name": "OVCAR-8", "Assigned Category": "active"}
{"Compound": "COc1ccc(NC(/C(C(=O)c2ccccc2)=C(\\O)C(=O)/C=C(\\O)c2ccccc2)c2ccc(OC)cc2)cc1 (centres undefined)", "System Name": "OVCAR-8", "Assigned Category": "inactive"}
{"Compound": "Cc1cc(NS(=O)(=O)c2ccc(NC(NC(=O)C(C(F)(F)F)C(F)(F)F)(C(F)(F)F)C(F)(F)F)cc2)no1", "System Name": "OVCAR-8", "Assigned Category": "inactive"}
{"Compound": "O=C(/C=C/c1ccc(O)c(O)c1)OCCc1ccc2ccccc2c1", "System Name": "OVCAR-8", "Assigned Category": "inactive"}
{"Compound": "CO[C@]12C[C@H](CNC(=O)c3cc(Br)c(Br)[nH]3)O[C@H]1NC(=O)N2", "System Name": "OVCAR-8", "Assigned Category": "inactive"}
{"Compound": "ClCCNCCNCCCl.ClCCNCCNCCCl.[O-][Cl+3]([O-])([O-])O", "System Name": "OVCAR-8", "Assigned Category": "inactive"}
{"Compound": "CC(C)OC(=S)Nc1ccc(Cl)c(/C=N/OC(C)(C)C)c1", "System Name": "OVCAR-8", "Assigned Category": "inactive"}
{"Compound": "O=c1[nH]c2nc3ccccc3c(=O)n2nc1Cc1ccccc1", "System Name": "OVCAR-8", "Assigned Category": "inactive"}
{"Compound": "c1c[nH]c(-c2ccc(-c3ccc[nH]3)c3nsnc23)c1", "System Name": "OVCAR-8", "Assigned Category": "inactive"}
{"Compound": "Cc1cc(C)nc(NS(=O)(=O)c2ccc(NC(=O)c3cccc4c(Nc5ccc(S(=O)(=O)N=C(N)N)cc5)c5ccc(Cl)cc5nc34)cc2)n1", "System Name": "OVCAR-8", "Assigned Category": "inactive"}
